- test.details: Pharmacokinetic experiment in SD rats after oral administration
- Format: in vivo
- settings: male, Sprague-Dawley (SD), rat, po, 5 mg/kg, plasma, read-out: Area under the curve AUC0-t
value.kind: AUC(0-t) (ng·h/mL)

Request: Entry C=CC(=O)N1CC[C@H](n2nc(C#Cc3ccc4cn(CC)nc4c3)c3c(N)ncc(C(C)=O)c32)C1 : reported AUC(0-t) = ?
Result: 1490

Request: Entry C=CC(=O)N1CC[C@H](n2nc(C#Cc3ccc4cn(C)nc4c3)c3c(N)ncc(C(C)=O)c32)C1 : reported AUC(0-t) = ?
Result: 2800

Request: Entry C=CC(=O)N1CC[C@H](n2nc(C#Cc3ccc4c(c3)ncn4C)c3c(N)ncc(C(=O)CC)c32)C1 : reported AUC(0-t) = ?
Result: 3400

Request: Entry C=CC(=O)N1CC[C@H](n2nc(C#Cc3ccc4cn(C5CC5)nc4c3)c3c(N)ncc(C(C)=O)c32)C1 : reported AUC(0-t) = ?
Result: 2240

Request: Entry C=CC(=O)N1CC[C@H](n2nc(C#Cc3ccc4c(c3)ncn4C3CC3)c3c(N)ncc(C(=O)C4CC4)c32)C1 : reported AUC(0-t) = ?
Result: 2230

Request: Entry C=CC(=O)N1CC[C@H](n2nc(C#Cc3ccc4ccnn4c3)c3c(N)ncc(C(=O)CC)c32)C1 : reported AUC(0-t) = ?
Result: 1150

[I] C=CC(=O)N1CC[C@H](n2nc(C#Cc3ccc4oc(C5CC5)nc4c3)c3c(N)ncc(C(C)=O)c32)C1
[II] C=CC(=O)N1CC[C@H](n2nc(C#Cc3cc4ncn(C5CC5)c4cc3F)c3c(N)ncc(C(=O)CC)c32)C1
Request: Of I and II , which shows the smaller AUC(0-t) value? Refer to your chosen item by its label in the answer.
Result: I

[1] C=CC(=O)N1CC[C@H](n2nc(C#Cc3ccc4c(c3)ncn4C3CC3)c3c(N)ncc(C(=O)CC)c32)C1
[2] C=CC(=O)N1CC[C@H](n2nc(C#Cc3cc4ncn(C5CC5)c4cc3Cl)c3c(N)ncc(C(=O)CC)c32)C1
Request: Among 1 and 2 , which shows a numerically higher AUC(0-t) result? Refer to your chosen item by its label in the answer.
Result: 1
(1: 4190 ng·h/mL, 2: 1440 ng·h/mL)

---

- test.details: Pharmacokinetic experiment in SD rats after oral administration
- Type: in vivo
- settings: male, Sprague-Dawley (SD), rat, po, 5 mg/kg, plasma, read-out: Plasma concentration Cmax
value.kind: Cmax (ng/mL)

See these solved cases before continuing.
Request: Entry C=CC(=O)N1CC[C@H](n2nc(C#Cc3ccc4c(c3)ncn4C3CC3)c3c(N)ncc(C(=O)C4CC4)c32)C1 [Example 38] : reported Cmax = ?
Result: 604

Request: Entry C=CC(=O)N1CC[C@H](n2nc(C#Cc3ccc4c(c3)ncn4C)c3c(N)ncc(C(=O)CC)c32)C1 [Example 64] : reported Cmax = ?
Result: 866

Request: Entry C=CC(=O)N1CC[C@H](n2nc(C#Cc3ccc4cn(C)nc4c3)c3c(N)ncc(C(C)=O)c32)C1 [Example 82] : reported Cmax = ?
Result: 677

Request: Entry C=CC(=O)N1CC[C@H](n2nc(C#Cc3ccc4c(c3)ncn4C3CC3)c3c(N)ncc(C(=O)CC)c32)C1 [Example 39] : reported Cmax = ?
Result: 1250

[A] C=CC(=O)N1CC[C@H](n2nc(C#Cc3ccc4ccnn4c3)c3c(N)ncc(C(=O)CC)c32)C1 [Example 72]
[B] C=CC(=O)N1CC[C@H](n2nc(C#Cc3cc4ncn(C5CC5)c4cc3F)c3c(N)ncc(C(=O)CC)c32)C1 [Example 48]
[C] C=CC(=O)N1CC[C@H](n2nc(C#Cc3ccc4cn(C5CC5)nc4c3)c3c(N)ncc(C(C)=O)c32)C1 [Example 87]
Request: Would you mind ranking these molecules by ascending Cmax? # answer = labels listed in requested order
Result: A, C, B

All values here come from patent US20250152564A1.
